pIC50 values by entry
# system-tested: VIM-1 (Pseudomonas aeruginosa (strain ATCC 15692 / DSM 22644 / CIP 104116 / JCM 14847 / LMG 12228 / 1C / PRS 101 / PAO1), UniProt A0A0F7KYQ8)
# assay-notes: Enzyme activity: determination of IC50, fluorescence assay with CCF2-FA substrate (VIM-1)
# Assay type: biochemical
# run-conditions: VIM-1 enzyme, CCF2-FA substrate; read-out: VIM-1 IC50
Entry type: numeric. Quantity: pIC50, the -log10 of concentration in molar units.

Below are worked cases with known answers.
CS(=O)(=O)C1CN(c2ccc(-c3cccc(S(N)(=O)=O)c3-c3nnn[nH]3)cn2)C1    6.96
N=C(NCCCN)c1ccc(-c2ccc(C(F)(F)F)c(S(N)(=O)=O)c2-c2nn[nH]n2)cc1    7.95

Now for a further molecule.
input: Endpoint output: pIC50 of NS(=O)(=O)c1c(C(F)(F)F)ccc(C2CCCc3sc(C(=O)O)nc32)c1-c1nnn[nH]1 (stereo not shown) . Value?
output: 7.89

---

# system-tested: UniProtKB P52699
# Sequence (P52699 whole entry, looked up): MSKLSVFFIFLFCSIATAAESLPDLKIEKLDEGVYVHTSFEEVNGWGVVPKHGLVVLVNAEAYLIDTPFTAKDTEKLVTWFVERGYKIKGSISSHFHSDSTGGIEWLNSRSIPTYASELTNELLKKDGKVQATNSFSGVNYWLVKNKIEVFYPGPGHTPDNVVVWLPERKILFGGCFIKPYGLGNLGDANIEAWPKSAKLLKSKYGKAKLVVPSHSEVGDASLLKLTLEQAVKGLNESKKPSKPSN
# assay-notes: biochemical
# Type: biochemical
# run-conditions: fluorescence assay with CCF2-FA substrate; read-out: IMP-1 IC50
IC50 values by entry
Express your answer in nM, writing the number without its unit.

Below are worked cases with known answers.
CC(C)(C)Cc1cccc(S(N)(=O)=O)c1-c1nnn[nH]1 [Example 159]    526
NS(=O)(=O)c1cccc(-c2ccc(CO)cc2)c1-c1nnn[nH]1 [Example 26]    46.2
NS(=O)(=O)c1cccc(-c2ccc(-n3cccn3)nc2)c1-c1nnn[nH]1 [Example 117]    134
COC(=O)c1ccc(-c2ccnc(S(N)(=O)=O)c2-c2nnn[nH]2)cc1 [Example 182]    348
NS(=O)(=O)c1c(C(F)(F)F)ccc(N2CCC3(CCNCC3)C2)c1-c1nnn[nH]1 [Example 771]    227

input: Endpoint output: IC50 of NC[C@H](N)C(=O)NC1CCC(c2ccc(C(F)(F)F)c(S(N)(=O)=O)c2-c2nnn[nH]2)CC1 (some centres unmarked) [Example 837] . Value?
output: 21.2

input: Endpoint output: IC50 of NS(=O)(=O)c1c(C(F)(F)F)ccc(-c2ccc(C3CCNCC3)nc2)c1-c1nnn[nH]1 [Example 744] . Value?
output: 18.1

input: Endpoint output: IC50 of NC1CCCC1N1CCC(c2ccc(-c3ccc(C(F)(F)F)c(S(N)(=O)=O)c3-c3nnn[nH]3)cc2)CC1 (centres unmarked) [Example 791] . Value?
output: 1.2

input: Endpoint output: IC50 of NS(=O)(=O)c1cccc(C2=CCSCC2)c1-c1nn[nH]n1 [Example 62] . Value?
output: 211

input: Endpoint output: IC50 of CNS(=O)(=O)c1ccc(-c2cccc(S(N)(=O)=O)c2-c2nn[nH]n2)cc1 [Example 57] . Value?
output: 28.9

input: Endpoint output: IC50 of CONC(=O)c1ccc(-c2cccc(S(N)(=O)=O)c2-c2nn[nH]n2)cc1 [Example 88] . Value?
output: 87.3

---

# system-tested: VIM-1 (Pseudomonas aeruginosa (strain ATCC 15692 / DSM 22644 / CIP 104116 / JCM 14847 / LMG 12228 / 1C / PRS 101 / PAO1), UniProt A0A0F7KYQ8)
# assay-notes: Enzyme activity: determination of IC50, fluorescence assay with CCF2-FA substrate (VIM-1)
# Type: biochemical
# run-conditions: VIM-1 enzyme, CCF2-FA substrate; read-out: VIM-1 IC50
pIC50: −log10 of the molar value.
pIC50 vs 9: at or above is 1 (yes), below is 0 (no).

NCCCN1CCC(c2ccc(-c3cccc(S(N)(=O)=O)c3-c3nnn[nH]3)cc2)CC1    0 (no)
NS(=O)(=O)c1c(C(F)(F)F)ccc(-c2ccc(C3CCN(C[C@H]4CNCCO4)CC3)cc2)c1-c1nnn[nH]1    0 (no)
NS(=O)(=O)c1c(C(F)(F)F)ccc(C2CCNc3ccccc32)c1-c1nnn[nH]1 (stereo not drawn)    1 (yes)
NS(=O)(=O)c1c(C(F)(F)F)ccc(-c2cnc3ccoc3c2)c1-c1nnn[nH]1    1 (yes)
NC(=O)c1cc2cccc(-c3ccc(C(F)(F)F)c(S(N)(=O)=O)c3-c3nn[nH]n3)c2[nH]1    1 (yes)

input: API: above_or_equal(metric=pIC50, cutoff=9) for item NCCC1CCC(N[C@H]2CC[C@H](c3ccc(C(F)(F)F)c(S(N)(=O)=O)c3-c3nnn[nH]3)CC2)CC1 (stereo partly drawn) [Example 693]
output: 0 (no)

input: API: above_or_equal(metric=pIC50, cutoff=9) for item NC(=O)C1CCCN(c2ccc(C(F)(F)F)c(S(N)(=O)=O)c2-c2nnn[nH]2)C1 (stereo not drawn)
output: 0 (no)

input: API: above_or_equal(metric=pIC50, cutoff=9) for item CC(C)[C@@H](N)CN1CCC(c2ccc(-c3cccc(S(N)(=O)=O)c3-c3nnn[nH]3)cc2)CC1
output: 0 (no)

input: API: above_or_equal(metric=pIC50, cutoff=9) for item Nc1ncc2cccc(-c3ccc(C(F)(F)F)c(S(N)(=O)=O)c3-c3nn[nH]n3)c2n1
output: 1 (yes)

input: API: above_or_equal(metric=pIC50, cutoff=9) for item CN(CCN1CCCC1)c1ccc(-c2cccc(S(N)(=O)=O)c2-c2nnn[nH]2)cn1
output: 0 (no)

input: API: above_or_equal(metric=pIC50, cutoff=9) for item Nc1ccc(-c2ccc(CCC3CCNCC3)c(S(N)(=O)=O)c2-c2nnn[nH]2)cn1
output: 0 (no)
